Provenance of the data: patent US20230056336A1

Experimental System: T1, basiliximab fab
T1 construct: The assay used a Fab of basiliximab; Chimeric antibody: human IgG1 constant, mouse variable domains
T1 sequence (VH, as listed by the source limits assumed, chain 1 of 2): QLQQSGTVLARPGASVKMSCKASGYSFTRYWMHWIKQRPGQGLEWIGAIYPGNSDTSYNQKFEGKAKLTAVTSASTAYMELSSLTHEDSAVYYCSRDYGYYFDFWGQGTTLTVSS
T1 sequence (VL, as listed by the source limits assumed, chain 2 of 2): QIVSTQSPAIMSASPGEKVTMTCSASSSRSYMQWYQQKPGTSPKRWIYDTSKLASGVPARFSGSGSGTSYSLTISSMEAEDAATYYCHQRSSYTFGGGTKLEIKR
Assay Method Text: BLI; CD25-Fc on anti-hFc biosensor, basiliximab Fab in solution; global 1:1 fit;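 note: biolayer interferometry signals normalized against a reference probe and smoothed with a Savitzky-Golay filter before the global fit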
Entries annotated with measured kon
Write down the numeric answer in M⁻¹ s⁻¹ and omit the unit.

Below, each entry is followed by its recorded kon result.
Query: Given the entry CD25 L2Y mutant (CD25-Fc) (Fc fusion, not shown: Fc part of CD25-Fc) EYCDDDPPEIPHATFKAMAYKEGTMLNCECKRGFRRIKSGSLYMLCTGNSSHSSWDNQCQCTSSATRNTTKQVTPQPEEQKERKTTEMQSPMQPVDQASLPGHCREPPPWENEATERIYHFVVGQMVYYQCVQGYRALHRGPAESVCKMTHGKTRWTQPQLICTGEMETSQFPGEEKPQASPEGRPESETSCLVTTTDFQIQTEMAATMETSIFTTEYQ , report its measured kon.
Reply: 1.75e+06

Query: Consider the binder CD25 L42Y mutant (CD25-Fc) (Fc fusion, not shown: Fc part of CD25-Fc) ELCDDDPPEIPHATFKAMAYKEGTMLNCECKRGFRRIKSGSYYMLCTGNSSHSSWDNQCQCTSSATRNTTKQVTPQPEEQKERKTTEMQSPMQPVDQASLPGHCREPPPWENEATERIYHFVVGQMVYYQCVQGYRALHRGPAESVCKMTHGKTRWTQPQLICTGEMETSQFPGEEKPQASPEGRPESETSCLVTTTDFQIQTEMAATMETSIFTTEYQ and give its measured kon.
Reply: 186000

Attention now shifts to the item below.
Query: Find the recorded kon belonging to CD25 S41E mutant (CD25-Fc) (Fc fusion, not shown: Fc part of CD25-Fc) ELCDDDPPEIPHATFKAMAYKEGTMLNCECKRGFRRIKSGELYMLCTGNSSHSSWDNQCQCTSSATRNTTKQVTPQPEEQKERKTTEMQSPMQPVDQASLPGHCREPPPWENEATERIYHFVVGQMVYYQCVQGYRALHRGPAESVCKMTHGKTRWTQPQLICTGEMETSQFPGEEKPQASPEGRPESETSCLVTTTDFQIQTEMAATMETSIFTTEYQ and report it.
Reply: 1.18e+06
